- System: MDA-MB-231
- protocol_notes: Inhibition of cancer cell proliferation, Alamar Blue assay (MDA-MB-231)
- Format: cell-based
- assay_conditions: Homo sapiens, Table 2A, Alamar Blue, 72 hours exposure, read-out: IC50s MDA-MB231
Examples of compounds with documented log10 IC50 follow.
parameter_measured: log10 IC50 (log10 of the value in µM)

mol_smiles: CCOc1ccc(-c2nnc(SCC(=O)Nc3cc(C)cc(C)c3)[nH]2)cc1C
log10 IC50: 1.70

mol_smiles: COc1ccc(-c2nnc(SCC(=O)Nc3cc(C)ccc3F)[nH]2)cc1
log10 IC50: 1.21

mol_smiles: Cc1cc(C)cc(NC(=O)CSc2nnc(-c3ccc(O)cc3)[nH]2)c1
log10 IC50: 1.96

mol_smiles: COc1ccc(-c2nnc(SCC(=O)Nc3cc(F)ccc3C)[nH]2)cc1
log10 IC50: 1.88

mol_smiles: CCCOc1ccc(-c2nnc(SCC(=O)Nc3cc(C)cc(C)c3)[nH]2)cc1
log10 IC50: 0.75

mol_smiles: CCOc1ccc(-c2nnc(SCC(=O)Nc3cc(C)cc(C)n3)[nH]2)cc1
log10 IC50: 1.72

mol_smiles: COc1ccc(-c2nnc(SCC(=O)Nc3ccc(C)cc3C)[nH]2)cc1
log10 IC50: 2.17

mol_smiles: CCOc1ccc(-c2nnc(SCC(=O)Nc3cccc(C)c3C)[nH]2)cc1
log10 IC50: 1.33

mol_smiles: CCOc1ccc(-c2nnc(SCC(=O)Nc3cc(C)ccc3F)[nH]2)cc1
log10 IC50: 1.60

mol_smiles: CCCOc1ccc(-c2nnc(SCC(=O)Nc3cc(OC)cc(OC)c3)[nH]2)cc1
log10 IC50: 1.04

Recorded values, source patent US20110257211A1.
